Protocol description: Pharmacokinetics of LSL33 in CD1 mice (plasma and brain)
Assay conditions: male, CD1, mouse, plasma, oral, 2 mg/kg
Result type: Cmax (ng/mL)
Kindly provide the numeric value in ng/mL only, without the unit symbol.

get_value(item= Cl.c1ccc2sc(-c3ncc[nH]3)cc2c1 , readout=Cmax) returns 950

---

Protocol description: Pharmacokinetics of LSL33 in CD1 mice (plasma and brain)
Assay conditions: male, CD1, mouse, brain, po, 2 mg/kg
Result type: concentration at 15 min (ng/g)
Use ng/g as the unit, but write only the number.

Note to self: concentration at 15 min recorded for Cl.c1ccc2sc(-c3ncc[nH]3)cc2c1 was 15.2
